Test: Human HepG2 cell viability assay in 384 well format
Assay type: toxicity, cell-based
Design: dose 125 nL, time 70.5 hour; concentration not given beside the values
Conditions: HepG2 cells, read-out: Inhibition
Below: a set of entries, each annotated with reported cytotoxicity at 70.5 h.
Give a bare numeral; the unit % is implied.

Here are 5 molecules together with their reported answers.
CNC(=O)C(NC(=O)CCc1cccc(OC2CCCC2)c1)C(C)C (stereo not drawn) | 6.19
CN(Cc1ccsc1)C(=O)c1cccc(F)c1 | -9.63
CCc1nc(CNc2ccc(-c3nc(C4CC4)no3)cn2)no1 | -9.74
CN(C)C(=O)C1CCC2(CCN(C(=O)Nc3cccc(F)c3)CC2)O1 (stereo not drawn) | -5.9
Cc1nc(CN2CCO[C@H]3[C@H](OCC(=O)N(C)C)CC[C@@H]32)cs1 | 17.3

Inquiry: Given Cc1cc(C)n(CC2CN(CCc3ccncc3)CCO2)n1 (stereo not drawn) , state its recorded cytotoxicity at 70.5 h.
Reply text: -2.71

Inquiry: Give the measured cytotoxicity at 70.5 h of O=C(NCCCN1CCOCC1)C(OC1CCCC1)c1ccccc1 (stereo not drawn) .
Reply text: -1.75

Inquiry: If you can, please state the reported cytotoxicity at 70.5 h value of CCn1cc(CN(C)C(=O)c2cc(C(F)(F)F)n(C)n2)cn1 .
Reply text: -7.42

Inquiry: Quick check: cytotoxicity at 70.5 h of O=C(c1c[nH]c(=O)c(Cl)c1)N1C[C@@H]2CC[C@H](C1)N(Cc1ccccc1)C2 ?
Reply text: -1.59

Inquiry: Any idea what its cytotoxicity at 70.5 h is? The molecule is Cc1ccc(NC(=O)C2CSCN2C(=O)c2ccncc2)c(C)c1 (stereo not drawn)
Reply text: -4.2

Inquiry: What value of cytotoxicity at 70.5 h has been reported for the following molecule? CCCC1(CO)CCCN(C(=O)CN2CCN(CC)CC2)C1 (stereo not drawn)
Reply text: -24.3

Inquiry: What value of measured cytotoxicity at 70.5 h is listed for O=C1CC(c2ccccc2)C2(CCN(Cc3nccs3)CC2)N1 (stereo not drawn) ?
Reply text: -9.09

###

Below: a set of entries, each annotated with reported cytotoxicity at 70.5 h.
Experiment: Human HepG2 cell viability assay in 384 well format
Format: toxicity, cell-based
Parameters: dose 125 nL, time 70.5 hour; concentration not given beside the values
Details: HepG2 cells, read-out: Inhibition
Provide the reading as a plain figure in %.

Inquiry: Entry under review: CCc1cnc(CN2CCC(O)(c3cc(OC)cc(OC)c3)CC2)o1 . Reported cytotoxicity at 70.5 h?
Reply text: -12.2

Inquiry: Return reported cytotoxicity at 70.5 h; argument: O=C(NCC(F)F)c1cnc(C2CCCN2)cn1 (stereo not drawn)
Reply text: -3.12

Inquiry: Reported cytotoxicity at 70.5 h for CN(C)Cc1nc2c(o1)CN(S(=O)(=O)c1cccs1)C2 : what is it?
Reply text: -9.46

###

Collected cytotoxicity at 70.5 h values appear next to each entry.
Test: Human HepG2 cell viability assay in 384 well format
Format: toxicity, cell-based
Set-up: dose 125 nL, time 70.5 hour; concentration not given beside the values
Conditions: HepG2 cells, read-out: Inhibition
The figure you give is taken to be in %; do not add the unit.

A selection of reference data follows.
COc1ccc(NC(=O)CN2CCS(=O)(=O)CC2)cn1 | -10.4
CNC(=O)[C@@H]1COC[C@H]2CN(C(=O)c3ccc(C)c(C)c3)C[C@H]21 | -7.79

Inquiry: Look up cytotoxicity at 70.5 h for this compound: Cc1cccc(CO[C@H]2CN(c3nnc(C)s3)[C@@H]3CCCO[C@H]23)n1
Reply text: 0.219

Inquiry: # lookup: cytotoxicity at 70.5 h of O=C(Cc1c(F)cccc1Cl)N1CCC(Nc2cccnn2)CC1
Reply text: -1.25

Inquiry: I would be grateful if you could share the reported cytotoxicity at 70.5 h for CS(=O)(=O)NC(=O)c1nnn(-c2ccccc2)c1C1CC1 .
Reply text: -5.6

###

Experiment: Human HepG2 cell viability assay in 384 well format
Assay type: toxicity, cell-based
Set-up: dose 125 nL, time 70.5 hour; concentration not given beside the values
Details: HepG2 cells, read-out: Inhibition
// reported cytotoxicity at 70.5 h per item

Would you please look over these solved cases?
Cc1nc(CCCNC(=O)Nc2cc(F)cc(F)c2)n[nH]1 | -11.9%
CCCc1nc(N2CCN(CC)CC2)c2c(n1)c(C)nn2CC | -5.26%
CS(=O)(=O)N1CCOCC2(CCN(c3cnccn3)CC2)C1 | -7.29%
CCOc1ccccc1N1CCN(c2nnc(C)o2)CC1 | -13.5%

Inquiry: Entry CN(C)S(=O)(=O)N1CCC(Oc2ccc(C#N)cc2)CC1 : reported cytotoxicity at 70.5 h = ?
Reply text: -4.56%

Inquiry: Please report the recorded cytotoxicity at 70.5 h for Cc1ncsc1-c1nc(-c2cccc(CN3CCOCC3)c2)no1 .
Reply text: -6.25%

###

Test: Human HepG2 cell viability assay in 384 well format
Assay type: toxicity, cell-based
Design: dose 125 nL, time 70.5 hour; concentration not given beside the values
Conditions: HepG2 cells, read-out: Inhibition
attribute measured: cytotoxicity at 70.5 h (%)
State just the number; it will be interpreted in %.

COCCN1CCC(NCc2c(C)nn(C)c2N(C)C)CC1 | -4.85
CNC(=O)CCS(=O)(=O)Cc1cc(Cl)c2c(c1)OCCO2 | -3.97
Cc1ccc(C(=O)NCCNc2ncccc2C#N)c(=O)[nH]1 | 20.6
COCc1nccc(C2CCCN(Cc3ccc(SC)cc3)C2)n1 (centres undefined) | -3.62

Inquiry: Dear colleague, I am looking for the recorded cytotoxicity at 70.5 h of the following molecule: Cc1cc(C)n(CC2CCN(CC(O)Cn3cccn3)CC2)n1 (centres undefined)
Reply text: -1.67

Inquiry: What value of measured cytotoxicity at 70.5 h is listed for c1cncc(-c2noc(CN3CCOC(Cn4cccn4)C3)n2)c1 (centres undefined) ?
Reply text: -4.62

Inquiry: # query: cytotoxicity at 70.5 h of entry CNC(=O)NC(=O)C(C)Nc1ccccc1OCCOC (centres undefined)
Reply text: -10.8

Inquiry: Give the measured cytotoxicity at 70.5 h of O=C(CCN1C(=O)CCC1=O)Nc1cnn(-c2ccccc2Cl)c1 .
Reply text: 10

Inquiry: Fill in: cytotoxicity at 70.5 h of CNC(=O)C(C)(C)N1CCC[C@H]1C(=O)NCC(C)C is ___
Reply text: -6.89

Inquiry: Looking for the measured cytotoxicity at 70.5 h of O=C(O)c1cc(C2=CCCCC2)cc(S(=O)(=O)NCc2ccccn2)c1 , can you help?
Reply text: -8.44

Inquiry: Quick one: cytotoxicity at 70.5 h of COCC(C)NC(=O)NCCCc1cc(N)n(-c2ccccc2)n1 (centres undefined) ?
Reply text: -108

Inquiry: Give its cytotoxicity at 70.5 h value. Item: CCc1ccc(C2CCCCCN2C(=O)CNC(=O)C2CC2)o1 (centres undefined)
Reply text: -1.46

Inquiry: // query cytotoxicity at 70.5 h value for entry CN(Cc1noc(C2CC2)n1)C1CCN(Cc2nnc(C3CC3)o2)C1 (centres undefined)
Reply text: -3.86

Inquiry: I have this molecule here, CC(=O)N1CCO[C@@H]2CN(Cc3ccccc3Cl)C[C@@H]2C1 , and I need its recorded cytotoxicity at 70.5 h.
Reply text: -5.68

Inquiry: Entry CCOc1ccccc1OC1CCN(C(=O)c2nc(=O)[nH][nH]2)CC1 has what cytotoxicity at 70.5 h?
Reply text: 27.9

Inquiry: Fill in: cytotoxicity at 70.5 h of CC(C)C(=O)NS(=O)(=O)CCc1ccccc1 is ___
Reply text: -12.8

###

Test: Human HepG2 cell viability assay in 384 well format
Type: toxicity, cell-based
Design: dose 125 nL, time 70.5 hour; concentration not given beside the values
Conditions: HepG2 cells, read-out: Inhibition
attribute measured: cytotoxicity at 70.5 h (%)
Please respond with the number in % and leave the unit unwritten.

Examples with their reported cytotoxicity at 70.5 h follow.
c1cc(CN2CC[C@@H]3[C@@H](CO[C@H]3CN3CCOCC3)C2)cs1 | -1.87
COCCN1C[C@@H]2CN(C(=O)CC3CC3)C[C@@H]2C1=O | -6.26
O=c1[nH]cnc2[nH]c(N3CCCCC3)nc12 | -5.16
Cc1cnn(C(C)C(=O)NCC2CCN(c3cnn(C)c(=O)c3)CC2)c1 (stereo not given) | -5.13

Inquiry: Endpoint output: cytotoxicity at 70.5 h of COc1ccccc1-n1c(C)cc(CNC(=O)NC(C)C)c1C . Value?
Reply text: -9.03

Inquiry: Which value of cytotoxicity at 70.5 h has been reported for CC(C)C(O)C(=O)N1CCC2(CC1)c1nc[nH]c1CCN2S(C)(=O)=O (stereo not given) in the records?
Reply text: -6.39

Inquiry: # input compound: CC(C)C1CN(C(=O)Nc2cnn(CC(F)F)c2)CCS1 (stereo not given) ; wanted: its cytotoxicity at 70.5 h
Reply text: 5.93
